Measured values drawn from PubChem BioAssay AID1159580 for this set.

protocol text: chemical genetic growth profiling, strain panel (AID 1159580);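 note: tested at 20 µM; growth read once vehicle control cultures reached saturation at 30 °C; 1 = growth at the plate median or of vehicle wells; lower values mean less growth of the strain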
assay conditions: S. cerevisiae deletion strains, growth OD, locus YPR141C, strain kar3
In all, about 5,500 compounds went through this assay and about 2,000 (36%) were called active. Roughly 18% stayed inconclusive and do not appear here. Cut-off read from the data, not from the text of the source: active = normalized growth mostly below about 0.91 (no sharp cut-off); inconclusive = no clear call, values can overlap the other calls; inactive = mostly above about 0.92. This is one part of the list.
// allowed return values: active, inactive

Worked set:
- molecule: "O=C1C=CC(=O)c2c(O)cccc21"
  group: "inactive"
- molecule: "O=C(c1ccccc1)c1ccc2n1CCC2C(=O)O (stereo not drawn)"
  group: "inactive"

Which outcome was entered for the molecule C=C[C@H]1CN2CC[C@H]1C[C@H]2[C@H](O)c1ccnc2ccccc12 in this test? inactive

Which outcome was entered for the molecule CN1CCC[C@H]1c1cccnc1 in this test? inactive

Which outcome was entered for the molecule O=C(O)CC[N+](=O)[O-] in this test? inactive

Which outcome was entered for the molecule O=C1NS(=O)(=O)c2ccccc21 in this test? inactive

Which outcome was entered for the molecule O=C1c2cccc(O)c2C(=O)c2c(O)cccc21 in this test? inactive

---

protocol text: chemical genetic growth profiling, strain panel (AID 1159580)
assay conditions: S. cerevisiae deletion strains, growth OD, locus YBR021W, strain FUR4, hits give low values
Among all 5,500 compounds or so, about 2,000 (36%) were called active. Another 18% or so got no clear call; they are omitted. The list shows a part of the results.
experimental endpoint: normalized growth
Give bare numbers.

For orientation, consider the following solved cases.
- molecule: "CN(C)CCC[C@@]1(c2ccc(F)cc2)OCc2cc(C#N)ccc21"
  experimental endpoint: "normalized growth"
  value reported: 1.02
- molecule: "CNC(C)[C@@H]1CC[C@@H](N)[C@@H](OC2[C@@H](N)C[C@@H](N)[C@H](OC3OC[C@](C)(O)[C@H](NC)[C@H]3O)[C@H]2O)O1 (stereo not given in full)"
  experimental endpoint: "normalized growth"
  value reported: 1.02
- molecule: "CN1CCC[C@H]1c1cccnc1"
  experimental endpoint: "normalized growth"
  value reported: 0.968
- molecule: "CC(=O)OC[C@@]1(O)C[C@@]23CCC4c5ccoc5CC[C@]4(C)C2CC[C@@H]1C3 (stereo not given in full)"
  experimental endpoint: "normalized growth"
  value reported: 0.964
- molecule: "COc1ccc(-c2c(OC)c3c(OC)c4c(cc3oc2=O)OC(C)(C)C=C4)cc1"
  experimental endpoint: "normalized growth"
  value reported: 1.08

For each of the items listed, what is its normalized growth?
1. CNC(=O)Oc1ccccc1OC(C)C
2. CC(C)C1CCC(C(=O)N[C@@H](Cc2ccccc2)C(=O)O)CC1 (stereo not given in full)
3. COc1cc([C@@H]2c3cc4c(cc3[C@H](O)[C@H]3COC(=O)[C@H]23)OCO4)cc(OC)c1OC
4. O=C1c2ccccc2C(=O)c2ccccc21
5. COc1ccccc1OCC(O)COC(N)=O (stereo not given)

1: 1.02; 2: 0.969; 3: 1.01; 4: 1.15; 5: 1.02

For each of the items listed, what is its normalized growth?
1. CCCc1ncc(C[n+]2ccccc2C)c(N)n1
2. CC[C@H]1OC(=O)[C@H](C)[C@@H](O[C@H]2C[C@@](C)(OC)[C@@H](O)[C@H](C)O2)[C@H](C)[C@@H](O[C@@H]2O[C@H](C)C[C@H](N(C)C)[C@H]2O)[C@](C)(O)C[C@@H](C)/C(=N/OCOCCOC)[C@H](C)[C@@H](O)[C@]1(C)O
3. COc1cc(OC)c2c(OC)c(-c3ccc4c(c3)OCO4)c(=O)oc2c1
4. O=C(O)c1cc(=O)c2ccccc2[nH]1

1. 1.06
2. 1.02
3. 0.975
4. 1.02

For each of the items listed, what is its normalized growth?
1. C[N+]12CCC(CC1)C(OC(=O)C(O)(c1ccccc1)c1ccccc1)C2 (stereo not given)
2. O=c1c(O)c(-c2ccccc2)oc2cc(O)ccc12
3. CC(=O)O[C@@H]1C2CC[C@@H]3C1(C[C@@H](O)[C@@]1(O)[C@@H](C[C@H](O)C1(C)C)[C@]3(C)O)C[C@@]2(C)O (stereo not given in full)
4. C[C@H]1C(=O)CCC2[C@]3(C)CC[C@@]4(C)C5CC(C)(C)CC[C@]5(C)CC[C@]4(C)C3CC[C@@]21C (stereo not given in full)
5. CN1CCN(C2=Nc3cc(Cl)ccc3Nc3ccccc32)CC1
6. O=C1C=C(O)c2ccccc2C1=O

0.99
1.05
1.02
0.713
0.979
1.05

---

Consider the following compounds; for each one, report its normalized growth.
protocol text: chemical genetic growth profiling, strain panel (AID 1159580)
assay conditions: S. cerevisiae deletion strains, growth OD, locus YCL016C, strain dcc1, hits give low values
Screen size: about 5,500 compounds; about 2,000 (36%) were called active. About 18% were inconclusive and are not listed. Some of the results follow.
Give bare numbers.

- compound: "Oc1cc2c(cc1O)C(c1ccccc1)CNCC2 (stereo unspecified)"
  value reported: 1

For each of the items listed, what is its normalized growth?
1. C[C@H]1C(=O)CCC2[C@]3(C)CC[C@@]4(C)C5CC(C)(C)CC[C@]5(C)CC[C@]4(C)C3CC[C@@]21C (stereo partly specified)
2. O=C1C=CC(=O)c2c(O)cccc21
3. CN1CCN(C2=Nc3cc(Cl)ccc3Nc3ccccc32)CC1
4. CC1(C)CC23C(=O)CCC(O)C2(C)CCC13 (stereo unspecified)

[1, 0.975, 0.954, 0.967]

---

protocol text: chemical genetic growth profiling, strain panel (AID 1159580);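 note: tested at 20 µM; growth read once vehicle control cultures reached saturation at 30 °C; 1 = growth at the plate median or of vehicle wells; lower values mean less growth of the strain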
assay conditions: S. cerevisiae deletion strains, growth OD, locus YLL026W, hits give low values
Out of some 5,500 compounds screened, about 2,000 (36%) were called active. Not shown: some 18% with an inconclusive outcome. The list shows a part of the results.
Consider the following compounds; for each one, report its normalized growth.
Answers are plain numbers.

For orientation, consider the following solved cases.
- compound: "CNC(=O)Oc1ccccc1OC(C)C"
  experimental endpoint: "normalized growth"
  value reported: 0.986
- compound: "Cn1c(=O)c2c(ncn2CCO)n(C)c1=O"
  experimental endpoint: "normalized growth"
  value reported: 1.02
- compound: "Oc1cccc2cccnc12"
  experimental endpoint: "normalized growth"
  value reported: 0.0573
- compound: "Cn1c(=O)[nH]c2nc[nH]c2c1=O"
  experimental endpoint: "normalized growth"
  value reported: 1

For each of the items listed, what is its normalized growth?
1. Cn1cnc2c1c(=O)[nH]c(=O)n2C
2. Cn1c(=O)c2c(ncn2C)n(C)c1=O
3. CC(C)C1CCC(C(=O)N[C@@H](Cc2ccccc2)C(=O)O)CC1 (stereo partly drawn)
4. Cc1cc2nc3c(=O)[nH]c(=O)nc-3n(CC(O)C(O)C(O)CO)c2cc1C (stereo not drawn)

0.996
0.962
0.981
0.973

---

protocol text: chemical genetic growth profiling, strain panel (AID 1159580);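 note: tested at 20 µM; growth read once vehicle control cultures reached saturation at 30 °C; 1 = growth at the plate median or of vehicle wells; lower values mean less growth of the strain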
assay conditions: S. cerevisiae deletion strains, growth OD, locus YKL193C, strain SDS22
Among all 5,500 compounds or so, about 2,000 (36%) were called active. Inconclusive results (about 18%) are left out. No stated cut-off is given here; in the data, active means normalized growth mostly below about 0.91 (no sharp cut-off); inconclusive means no clear call, values can overlap the other calls; inactive means mostly above about 0.92. The list shows a part of the results.
// allowed return values: true (1) for active, false (0) for inactive

Worked set:
- molecule: "O=C(OCCNc1ccc([N+](=O)[O-])cn1)c1ccc([N+](=O)[O-])o1"
  group: "false (0)"
- molecule: "O=[N+]([O-])c1cc(C(F)(F)F)ccc1Sc1n[nH]c(-c2cc(Cl)cc(Cl)c2)n1"
  group: "false (0)"
- molecule: "Cc1cc(Sc2c([N+](=O)[O-])cc(C(F)(F)F)cc2[N+](=O)[O-])c(Cl)cc1Cl"
  group: "false (0)"
- molecule: "O=C(NCc1ccc2c(c1)OCO2)c1cc2ccccc2s1"
  group: "true (1)"
- molecule: "COc1cc(C2CC(=S)Nc3ccccc3S2)cc(OC)c1OC (stereo unspecified)"
  group: "false (0)"
- molecule: "COC(=O)c1sccc1S(=O)(=O)Nc1cc(C(F)(F)F)cc(C(F)(F)F)c1"
  group: "false (0)"
- molecule: "Cn1ncc(-c2nc(-c3ccc(Cl)cc3)cs2)c1N"
  group: "false (0)"
- molecule: "Cc1cc2nc3c(Cl)c(O)c4ccccc4c3nc2cc1C"
  group: "false (0)"

Here is another molecule to look at.
Which outcome was entered for the molecule O=C1c2ccccc2C(=O)c2sccc21 in this test? true (1)

---

Consider the following molecules; for each one, report its normalized growth.
protocol text: chemical genetic growth profiling, strain panel (AID 1159580);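 note: tested at 20 µM; growth read once vehicle control cultures reached saturation at 30 °C; 1 = growth at the plate median or of vehicle wells; lower values mean less growth of the strain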
assay conditions: S. cerevisiae deletion strains, growth OD, locus YHR030C, strain SLT2, hits give low values
Hit rate of the full screen: of about 5,500 compounds, about 2,000 (36%) were called active. Not shown: some 18% with an inconclusive outcome. The list shows a part of the results.
Numbers only.

For each of the items listed, what is its normalized growth?
1. Cc1cc(C(F)(F)F)n2nc(-c3ccc(C(C)(C)C)cc3)cc2n1
2. COc1cc2ncnc(Nc3cccc(Cl)c3)c2cc1OC
3. COC(=O)C[C@H]1C(C)(C)[C@H](O)[C@@H]2CC3=C4CC(O)O[C@@H](c5ccoc5)[C@]4(C)CCC3[C@@]1(C)C2=O (stereo partly specified)
4. CC(C)=CCC/C(C)=C/CO
5. CC1SC(c2cccnc2)N(c2ccc(F)cc2F)C1=O (stereo unspecified)
6. Cc1cc(C)c2cc(C(=O)NCCNc3ccc(C(F)(F)F)cn3)[nH]c2c1

1: 0.963; 2: 0.882; 3: 0.996; 4: 1.01; 5: 1.01; 6: 0.0941

For each of the items listed, what is its normalized growth?
1. Nc1cccc2c1C(=O)c1ccccc1-2
2. CNC(=O)Oc1ccccc1OC(C)C
3. COC(=O)c1sccc1S(=O)(=O)Nc1cc(C(F)(F)F)cc(C(F)(F)F)c1
4. FC(F)(F)c1cc(-c2ccc(Cl)cc2)nc2cc(C3CC3)nn12

1: 0.134; 2: 1.02; 3: 1.07; 4: 1.16

For each of the items listed, what is its normalized growth?
1. CC(C)(C)S(=O)(=O)c1cnc(N)nc1N
2. O=C1c2ccccc2C(=O)C1(O)C1(O)C(=O)c2ccccc2C1=O
3. O=S(=O)(Nc1cc(C(F)(F)F)cc(C(F)(F)F)c1)c1ccc(Cl)s1
4. O=C(O)c1cc(O)c2c(c1)C(=O)c1cc(O)cc(O)c1C2=O
5. O=C(O)c1ccccc1Sc1c(C(=O)O)cc([N+](=O)[O-])cc1[N+](=O)[O-]

[1.07, 1.04, 0.246, 0.913, 1.01]

For each of the items listed, what is its normalized growth?
1. CCCCCC/C=C\CCCCCCCc1cccc(O)c1C(=O)O
2. O=C(O)c1cccc([N+](=O)[O-])c1C(=O)Nc1ccc(F)cc1
3. C[C@]12CCc3occc3C1CC[C@@]13C[C@@H](CCC12)[C@@](O)(CO)C3 (stereo partly specified)
4. COc1cc2cccc(OC)c(=O)c2c(OC)c1OC
5. Cc1cc2nc3c(=O)[nH]c(=O)nc-3n(C[C@@H](O)[C@@H](O)[C@@H](O)COP(=O)(O)O)c2cc1C
6. COc1cc(C2CC(=S)Nc3ccccc3S2)cc(OC)c1OC (stereo unspecified)
7. COc1ccccc1N1CC(C)(C)C(=O)N(C(=O)c2c(F)cccc2Cl)C1=S

1: 1; 2: 1.1; 3: 0.934; 4: 1.01; 5: 1.04; 6: 1.07; 7: 1.01
